For each entry below, report its apparent KD of MS2 coat protein value.
Test system: MS2 coat protein
Test: apparent KD of MS2 coat protein; designed switch direction (-1 OFF switch, 1 ON switch): -1; higher = weaker reporter binding
Settings: input ligand: FMN 200 uM
The reply should contain only the number, in nM.

Query: Consider the sequence shown here: GGUCGACAUGAGGAUCACCCAUGUCAGGAUAUCGUCACUGGAGCCUCGGCUCCAGUGACGAGAAGGGAUAUGAU [E1/17-A2] (Eterna round: R97, puzzle: Exclusion 1) What is its recorded apparent KD of MS2 coat protein?
Result: 41.9

Query: What about AAACCCGCGCGAGGAUAUCACAUGAGGAUCACCCAUGUGGCACUCCGUCACCGGGCAGUCCCGAGUGAGAAGGUGCAGGCGGAA [Entereis] (Eterna round: R96, puzzle: Exclusion NG 2) ?
Result: 27.5

Query: What about GGGCUGUCAGGAUAUGUGUGUGUGUGUGAAAGCGCGCGCGCGCAGAAGGGACAUGAGGAUCACCCAUGUGGCCC [-35.3, -34.3 kcal, A 20%, 6bis-0] (Eterna round: R97, puzzle: Exclusion 4) ?
Result: 32.1

###

Tested on: K4 kissing-loop RNA reporter;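 further: bound reporter read as fluorescence of individual clusters on recovered sequencing chips by microscopy, with normalized cluster intensities fitted with a binding model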
Test: apparent KD of K4 kissing-loop reporter; higher = weaker reporter binding
Conditions: Eterna round: R107; input ligand: none
For each entry below, report its apparent KD of K4 kissing-loop reporter value.

Query: Consider the sequence shown here: UUAGUCUAGAGAAGGAGCGCAGUGAUGUUGCGGUAUGUGAAAAUAUGUAUAUAAUAAUAAAUGCAGGUAGGUCGCUCUAGACAUU [AK2 Exc Arginine B] What is its recorded apparent KD of K4 kissing-loop reporter?
Result: 64.9 nM

Query: What about AACAACUUGUUUGUCGGGUGUUCGCGCGAUACCAGCCGAAUGGAUGGCCCUUGGCAGCGCAGCGAGUGAUGUUCGCCCGCUUGAC [Exclusion Theophylline A GF 24] ?
Result: 552 nM

Query: What about CUAUUUCGCGUGGAUACCAGCGGUCGUAAAAUGUCAGUGAUGUUGAAGAGGAAAAGAGCUCGCCCUUGGCAGCCAUUCCGCACUA [theeternabot_sameState_KL_Theo_B_34] ?
Result: 568 nM

Query: What about GCAACAUUGGCAGGAUAUCAUUCUGAGUGAUGUUCAGGGUUCAGCUAACGAAAGUUAGUUGUACCAUGAGAAGGGCUAAUGUUGC [Omei KL FMN B SS A v1] ?
Result: 1120 nM

Query: What about UCUCCAGUGAUGUUGGAGACGGAUGAGGAAGGAGCGGGCACGUGCCCAGGUAGGUCGCCUCGAAAGCCCUGUAGCAUCGCGAAAC [Disoribe] ?
Result: 203 nM

Query: What about CGGAUGUAGUGAUGUUAUAUUAGAUGUAGACGAGGACCGGUACGGCCGCCACUCGUGACGGCUGCUAGCGCGUUGCGAGGUUUGC [ExTryptoA.Cn] ?
Result: 758 nM

Query: What about UAGGAGUGAUGUUCCAUAUCUUGAGCCGAAGGAGCGCCUUUCUAGGCAGGUAGGUCGCGGCAGAAGGUACCAGUGAUGUUGGAAA [Same State Arginine A GF7] ?
Result: 208 nM

Query: What about UGUAAUGGCUGAGCAGCCGUGGUACGAGAUACCAGUGAUUUCGAUCACCCUUGGCAGCUCGGCGUGAGUGAUGUUCACGCUACAC [Theo A SS t12] ?
Result: 203 nM

Query: What about UGUCAUGGAAACAUGACCGUUAAAAUAAAUCGAGGACCGGUACGGCCGCCACUCGUAUAGCGGUCAGUGAUGUUGACUGUAGUAC [KL-SSTryp-A form2 sub12 #dotplot2>1] ?
Result: 491 nM

Query: What about UUCGUAGUAGGAAACUAUUACGAAAAGGAAGGAGCGGCGAAGAAGCCAGGUAGGUCGCCUAUUGACAGUGAUGUUGUUAUGUAGA [#9] ?
Result: 241 nM

Query: What about GCCGUAGAUUGAAGGAGCGUGGACCUAUCGCUUGAACAGUGAUGUUGUUUAUCUAGGGAGCCGCAGGUAGGUCGCAAUCUACGGC ?
Result: 478 nM

Query: What about GGAUAGGACAGAGGAUAUGGGCUAGGCAAGAAUAACUUGUCUAGCAAAUCCAUGAGGAGUGAUGUUCCAGAAGGCUGUCCUAUCG [FmnBX 1 - #SwitchBubble #StraticStem #DoubleMagnetSystem] ?
Result: 114 nM

Query: What about UGAUCAACAUCUGAUACCAGUCGCUCGAGUAAUCAACCGUGGCUAGUGAUGUUGGCUUUUGACCCUUGGCAGCAGAAUCGUGUCA [theeternabot_sameState_KL_Theo_B_20] ?
Result: 112 nM

Query: What about GGCACUUUUGGUAGAAACCAUCUACCUCUAUAGGAUAUGCCGAAAGGCAGAAGGAUAGACCUACAGAGUGAUGUUCUGCGUGCCU ?
Result: 719 nM

Query: What about UUUAUAUAGUCGGCCGCCACUGGAUUAAUAUUUGUAUAAUCUAGAUCAAAGUGAUGUUUUGAGUCCAGGACCGGGACAUUUGUUA [JR_ExcTryptoB_Sub006] ?
Result: 486 nM

Query: What about AAAUAAAUCACGGCCGCCACUGUAAGUUGAAGUGAUGUUUCAAGAUAUAGUAUGUUUUAUAAUAUCAGGACCGGGUGAUUUUUAA [JR_SSTryptoB_Sub021] ?
Result: 133 nM

Query: What about AAGCCAGAGAUUGCUGCGGGUUCCAGAGAUACCAGCCGUAUUGAAGGCCCUUGGCAGCUCGAGUGAUGUUCGAGCCGUCUCUAGC [Bisore] ?
Result: 124 nM

Query: What about UUUGUAUAGGGAAGGAGCGUGAAUGAUAAUGAAUAUAGUGAUGUUAUAUAUAAGAAAGAAUCACAGGUAGGUCGCCCGGAUGAGU [SSArgB.L] ?
Result: 477 nM

Query: What about AUGCGCAGCCUGCUUACGUAUGAGCCGGAAGGAGCGGCAGAAUUGCCAGGUAGGUCGCCGGCCCAGUGAUGUUGGGAUGGUGUGG [Atusqubela] ?
Result: 343 nM

Query: What about AGCUGUGGCAGAAGGAGCGGCAGUUAUUCUGAUAGUACUCUGAGUGAUGUUCAGAACGACUGUCAGGUAGGUCGCUGUCACAGCU [#02 K4 Arginine B Exclusion] ?
Result: 234 nM

Query: What about CUAAGGGAAGCAGGAUAUCGGUAUUAGUGUGUUAAAUAAACACUCGGGUAGUGAUGUUGCCCGUGGCGAGAAGGGCUACCAUUGG [Laace] ?
Result: 48.7 nM

Query: What about AAGCGUGUCGCGGCCGCCACUCCUGAGUGAUGUUCAGAAAGCAGUUUUUUAUUCAGGAAAAGCGCGAGGACCGGGCGACGCCGAU [theeternabot_sameState_KL_Trp_B_1] ?
Result: 460 nM

Query: What about AAACUUGCAGUGAUGUUGCAAGUAGGUGAUACCAGCAUCGAAAGAUGCCCUUGGCAGCACCAACACUGUAAGUAAGUAUCACCAA [(H1)-(H2)-(T1)-(T2)-(H)'-(T)'_Design2] ?
Result: 117 nM

These entries and their values trace back to the supplement of paper PMC9170038.
